System: PC3 (Prostate Cancer) cells
Assay: Cellular growth assay (MTT), PC3
Type: cell-based
Details: Homo sapiens, PC-3, 40 hr incubation, read-out: PC3 (inhibition of 50% of cellular growth)
Exercise: state measured IC50 for each of the compounds provided.

Take a look at these entries with their results.
INSERT INTO measurements (compound, assayed_system, observed_property, assay_value) VALUES
  ('CCCC(Nc1cncc(-c2ccc(O)c(OC)c2)n1)c1ccc(OC)cc1 (stereo not shown)', 'PC3 (Prostate Cancer) cells', 'IC50', '≤ 20 µM'),
  ('CCC[C@H](Nc1cncc(-c2ccc(NCC)c(OC)c2)n1)c1ccccc1', 'PC3 (Prostate Cancer) cells', 'IC50', '≤ 20 µM'),
  ('CCCC(Nc1cncc(-c2ccc(O)c(OCC)c2)n1)c1cccc(F)c1 (stereo not shown)', 'PC3 (Prostate Cancer) cells', 'IC50', '≤ 20 µM');

Please give IC50, item by item, for the list that follows.
1. CCCC(Nc1cncc(-c2ccc(N)c(OC)c2)n1)c1ccc(F)cc1 (stereo not shown)
2. CCCC(Nc1cncc(-c2ccc(O)c(OC)c2)n1)c1cccc(F)c1F (stereo not shown)
3. CCCC(Nc1cncc(-c2ccc(O)c(OC)c2)n1)c1cccc(C(=O)NC)c1 (stereo not shown)
4. CCCC(Nc1cncc(-c2ccc(NS(C)(=O)=O)c(OC)c2)n1)c1ccc(F)cc1 (stereo not shown)

**A:**
["≤ 20 µM", "> 20 µM", "> 20 µM", "≤ 20 µM"]
